System: Cocklebur
Experiment: pre-emergence herbicide test
Format: in vivo
Conditions: Xanthium strumarium, pre-emergence, 0.25 lb/A; read-out: % plant inhibition
Each entry below carries its recorded inhibition at 280.212 g/ha.

compound	units-label	inhibition at 280.212 g/ha
Cc1c(-c2cc(OCC(=O)OC(C)C)c(Cl)cc2F)nn(C)c1C(F)(F)F	%	70
Cc1c(-c2cc(C(=O)OCc3ccccc3)c(Cl)cc2F)nn(C)c1C(F)(F)F	%	25
CCCCCOC(=O)c1cc(-c2nn(C)c(C(F)(F)F)c2C)c(F)cc1Cl	%	45
Cc1c(-c2cc(C(=O)OCC(=O)OC(C)C)c(Cl)cc2F)nn(C)c1C(F)(F)F	%	10
CCOC(=O)C(C)OC(=O)c1cc(-c2nn(C)c(C(F)(F)F)c2C)c(F)cc1Cl (stereo not drawn)	%	55
COC(=O)CSCc1cc(-c2nn(C)c(C(F)(F)F)c2C)c(F)cc1Cl	%	15
C#CCOC(=O)c1cc(-c2nn(C)c(C(F)(F)F)c2C)c(F)cc1Cl	%	65
Cc1cc(-c2nn(C)c(C(F)(F)F)c2C)c(O)cc1Cl	%	0
Cc1c(-c2cc(C(N)=O)c(Cl)cc2F)nn(C)c1C(F)(F)F	%	20

The values you see were collected from patent US5672715A.
